Assay: Cytotoxicity activity against the KB cell culture at less than 10 uM
Type: functional
Conditions: Homo sapiens, read-out: ED50 (the source's name)

Test smiles | Unit label | EC50
CCOC(=O)Nc1cc(Nc2ccccc2)c2[nH]cnc2n1 | µM | 9.5
